The origin of these recorded values is the supplement of paper PMC7877785.

protocol_text: self-splicing fitness, log relative to wild type (ln ratio); higher = more splicing; Tetrahymena group I intron in knt gene, E. coli kanamycin selection, DiMSum; sequences stand for … in CUCUCU…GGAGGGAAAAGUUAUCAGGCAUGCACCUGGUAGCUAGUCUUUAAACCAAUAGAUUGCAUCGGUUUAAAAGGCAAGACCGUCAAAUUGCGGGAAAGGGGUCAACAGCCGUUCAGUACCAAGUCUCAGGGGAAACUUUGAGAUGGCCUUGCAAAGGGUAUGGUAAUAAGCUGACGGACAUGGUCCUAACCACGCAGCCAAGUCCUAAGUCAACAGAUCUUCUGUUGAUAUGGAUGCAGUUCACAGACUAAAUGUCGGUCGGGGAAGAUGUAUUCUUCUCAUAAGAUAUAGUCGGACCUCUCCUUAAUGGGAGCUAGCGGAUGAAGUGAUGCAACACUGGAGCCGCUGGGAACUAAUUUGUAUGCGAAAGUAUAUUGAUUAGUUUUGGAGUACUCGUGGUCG;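 further: selection with 25 µg/mL kanamycin versus none on LB agar overnight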
settings: 30 °C
Provide the reported self-splicing fitness (ln) of each item.
Simply state the number, no unit and no words.

INPUT: Look at this sequence and give its reported self-splicing fitness (ln). `GGUCAGCAAUAUUACGUUAC`
OUTPUT: -1.25

INPUT: Look at this sequence and give its reported self-splicing fitness (ln). `UUUUAGCAAUAUUACGUAAA`
OUTPUT: -1.52

INPUT: Look at this sequence and give its reported self-splicing fitness (ln). `GCCAAGCAAUAUUACGGCGA`
OUTPUT: -1.18

INPUT: Look at this sequence and give its reported self-splicing fitness (ln). `AACAAGCAAUAUUACGCUCA`
OUTPUT: -0.608

INPUT: Look at this sequence and give its reported self-splicing fitness (ln). `CAAGAGCAAUAUUACGUCAA`
OUTPUT: -3.43

INPUT: Look at this sequence and give its reported self-splicing fitness (ln). `AUUCAGCAAUAUUACGGCAU`
OUTPUT: -0.321

INPUT: Look at this sequence and give its reported self-splicing fitness (ln). `CUCGAGCAAUAUUACGGACG`
OUTPUT: -2.4

INPUT: Look at this sequence and give its reported self-splicing fitness (ln). `ACGCAGCAAUAUUACGCGUA`
OUTPUT: -3.63

INPUT: Look at this sequence and give its reported self-splicing fitness (ln). `CUCUAGCAAUAUUACGUGCU`
OUTPUT: -2.48

INPUT: Look at this sequence and give its reported self-splicing fitness (ln). `ACCAAGCAAUAUUACGAAAU`
OUTPUT: -2.89

INPUT: Look at this sequence and give its reported self-splicing fitness (ln). `CCUGAGCAAUAUUACGCAUG`
OUTPUT: -4.37

INPUT: Look at this sequence and give its reported self-splicing fitness (ln). `GUGAAGCAAUAUUACGUGAG`
OUTPUT: -1.26

INPUT: Look at this sequence and give its reported self-splicing fitness (ln). `GUGCAGCAAUAUUACGCACU`
OUTPUT: -3.41

INPUT: Look at this sequence and give its reported self-splicing fitness (ln). `GAAGAGCAAUAUUACGUAAG`
OUTPUT: -3.39

INPUT: Look at this sequence and give its reported self-splicing fitness (ln). `AGCGAGCAAUAUUACGAUAU`
OUTPUT: -4.12

INPUT: Look at this sequence and give its reported self-splicing fitness (ln). `ACCUAGCAAUAUUACGUUUC`
OUTPUT: -3.55

INPUT: Look at this sequence and give its reported self-splicing fitness (ln). `UCAGAGCAAUAUUACGUGGG`
OUTPUT: -3.2

INPUT: Look at this sequence and give its reported self-splicing fitness (ln). `UAUGAGCAAUAUUACGUAAC`
OUTPUT: -2.86

INPUT: Look at this sequence and give its reported self-splicing fitness (ln). `AAUAAGCAAUAUUACGCCCA`
OUTPUT: 0.0107

INPUT: Look at this sequence and give its reported self-splicing fitness (ln). `AAACAGCAAUAUUACGGCCA`
OUTPUT: -1.41

INPUT: Look at this sequence and give its reported self-splicing fitness (ln). `CUCUAGCAAUAUUACGGUCU`
OUTPUT: -3.26

INPUT: Look at this sequence and give its reported self-splicing fitness (ln). `UCUUAGCAAUAUUACGACGU`
OUTPUT: -0.316

INPUT: Look at this sequence and give its reported self-splicing fitness (ln). `UUUCAGCAAUAUUACGUGAC`
OUTPUT: -2.99

INPUT: Look at this sequence and give its reported self-splicing fitness (ln). `UACUAGCAAUAUUACGGUGA`
OUTPUT: -1.54

INPUT: Look at this sequence and give its reported self-splicing fitness (ln). `GUCCAGCAAUAUUACGGAAG`
OUTPUT: -0.697

INPUT: Look at this sequence and give its reported self-splicing fitness (ln). `CGGGAGCAAUAUUACGGAUC`
OUTPUT: -3.09

INPUT: Look at this sequence and give its reported self-splicing fitness (ln). `UGUCAGCAAUAUUACGUCGC`
OUTPUT: -1.14

INPUT: Look at this sequence and give its reported self-splicing fitness (ln). `UUCUAGCAAUAUUACGAGGU`
OUTPUT: -3.27

INPUT: Look at this sequence and give its reported self-splicing fitness (ln). `CUCGAGCAAUAUUACGUUCA`
OUTPUT: -3.47

INPUT: Look at this sequence and give its reported self-splicing fitness (ln). `CGGUAGCAAUAUUACGUUCG`
OUTPUT: -2.19

INPUT: Look at this sequence and give its reported self-splicing fitness (ln). `UUGAAGCAAUAUUACGUGGU`
OUTPUT: -3.78

INPUT: Look at this sequence and give its reported self-splicing fitness (ln). `UGGAAGCAAUAUUACGGGCG`
OUTPUT: -0.122

INPUT: Look at this sequence and give its reported self-splicing fitness (ln). `AUAAAGCAAUAUUACGUGGA`
OUTPUT: -3.9

INPUT: Look at this sequence and give its reported self-splicing fitness (ln). `CACGAGCAAUAUUACGCACG`
OUTPUT: -2.13
